Values from paper PMC12248599

System: Caco-2 cell monolayer
Test: Caco-2 monolayer transport (bioavailability) study, AB and BA directions
Format: in vitro ADME, Homo sapiens
Details: BA experiment, acceptor side, S2 (22 mg/mL GSE), 115 min
Marks after values point to notes of the source that are not given here.
MEASURE_NAME: Apical Side 115 min

# Apical Side 115 min (molecule: O=C(O)c1cc(O)c(O)c(O)c1 ) is 10.7 ± 0.6 ^c mg/L

# Apical Side 115 min (molecule: COc1cc(-c2[o+]c3cc(O)cc(O)c3cc2O[C@@H]2O[C@H](CO)[C@@H](O)[C@H](O)[C@H]2O)cc(OC)c1O [M3G, malvidin-3-O-glucoside] ) is 0.26 ± 0.01 ^d mg/L

# Apical Side 115 min (molecule: O=C(/C=C/c1ccc(O)c(O)c1)O[C@@H](C(=O)O)[C@@H](O)C(=O)O ) is 0.11 ± 0.01 ^b,c mg/L

# Apical Side 115 min (molecule: O=c1c(O[C@@H]2O[C@H](CO)[C@@H](O)[C@H](O)[C@H]2O)c(-c2ccc(O)c(O)c2)oc2cc(O)cc(O)c12 [Q3G, quercetin-3-glucoside] ) is 0.014 ± 0.001 ^c,d mg/L

# Apical Side 115 min (molecule: O=c1c(O[C@@H]2O[C@H](CO)[C@@H](O)[C@H](O)[C@H]2O)c(-c2ccc(O)cc2)oc2cc(O)cc(O)c12 [K3G, kaempferol-3-glucoside] ) is 9.4 ± 0.3 ^c,d mg/L
